# Tested on: TGF-β
# assay-explanation: AlphaScreen SureFire p-SMAD3 (Ser423/425) assay, TGF-β-stimulated cells
# Assay type: cell-based
# condition-description: Mus musculus; p-SMAD3 (Ser423/425) AlphaScreen in cell lysate; MPC-11; TGF-β stimulation; read-out: TGF-β: inhibition of TGF-β signaling, TGF-β pSMAD (MPC-11)
pIC50: −log10 of the molar value.
property-label: pIC50

Return reported pIC50. Input compound: "Fc1ccc(-c2nc3occn3c2-c2ccc3nccnc3c2)cc1"
6.00 to 7.00

Return reported pIC50. Input compound: "Cc1cc(-c2nc3n(c2-c2ccc4nccn4c2)CCC3)c(C)cc1F"
< 6.00

Return reported pIC50. Input compound: "Fc1ccc(Cl)cc1-c1nc2n(c1-c1ccc3nccn3c1)CCC2"
> 7.30

Return reported pIC50. Input compound: "Fc1ccc(-c2nc3occn3c2-c2ccc3ncccc3c2)cc1"
6.00 to 7.00

Return reported pIC50. Input compound: "Cc1ccc(-c2nc3n(c2-c2ccc4ncccc4c2)CCC3)c(F)c1F"
< 6.00

Return reported pIC50. Input compound: "Fc1cc(F)c(-c2nc3n(c2-c2ccc4[nH]ncc4c2)CCC3)cc1F"
6.00 to 7.00

Return reported pIC50. Input compound: "Cc1ccc(F)c(-c2nc3n(c2-c2ccc4ncnn4c2)CCC3)c1"
> 7.30

Return reported pIC50. Input compound: "Cc1cccc(-c2nc3occn3c2-c2ccc3ncccc3c2)c1"
7.00 to 7.30

Return reported pIC50. Input compound: "Fc1cc(-c2nc3n(c2-c2ccc4ncnn4c2)CCC3)c(F)cc1Cl"
< 6.00

Return reported pIC50. Input compound: "Cc1cc(F)ccc1-c1nc2n(c1-c1ccc3ncnn3c1)CCC2"
< 6.00

Measured values drawn from patent US10696693B2 for this set.
